Origin of the recorded values: paper PMC5700166

- target desc: GST-Ap-NF-kB RHD (Exaiptasia pallida (Aiptasia), UniProt A0A913YAJ5 2-422)
- Sequence: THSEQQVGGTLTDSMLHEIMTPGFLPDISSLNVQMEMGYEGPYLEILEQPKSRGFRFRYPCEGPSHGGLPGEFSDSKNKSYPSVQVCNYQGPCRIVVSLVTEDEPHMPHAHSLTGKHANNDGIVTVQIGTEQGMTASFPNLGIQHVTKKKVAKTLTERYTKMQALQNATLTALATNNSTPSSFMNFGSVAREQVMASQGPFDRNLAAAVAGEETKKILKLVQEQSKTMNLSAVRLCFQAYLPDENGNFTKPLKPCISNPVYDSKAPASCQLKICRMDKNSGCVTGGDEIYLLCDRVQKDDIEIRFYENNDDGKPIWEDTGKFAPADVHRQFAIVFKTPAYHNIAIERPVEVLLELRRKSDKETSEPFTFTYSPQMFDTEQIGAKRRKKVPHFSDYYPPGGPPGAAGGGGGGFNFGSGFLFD
- method description: protein-binding microarray (PBM); PBM: ~300 nM protein, 6 mM HEPES pH 7.8, 80 mM KCl, 0.5 mM EDTA, 0.5 mM EGTA, 6% glycerol, 35 ng/ul poly-dIdC, 1% milk, 1 h, room temperature; high values mean tight binding
- measurement setup: dsDNA, one strand shown
Outcome label depends on binding signal relative to 4 z-score: at/above gives T, below gives F.

- sequence content: "CCGATTAACATCAAAGTTTCCCATGATGTTAATCGGGTCTTGATTCGCTTGACGCTGCTG"
  qualitative label: "F"
- sequence content: "CCGATTAACATCAAGGGGGAATATGATGTTAATCGGGTCTTGATTCGCTTGACGCTGCTG"
  qualitative label: "T"
- sequence content: "CCGATTAACATCAGAAAAATCCCTGATGTTAATCGGGTCTTGATTCGCTTGACGCTGCTG"
  qualitative label: "T"
- sequence content: "CCGATTAACATCACCCCTCCCCATGATGTTAATCGGGTCTTGATTCGCTTGACGCTGCTG"
  qualitative label: "F"
- sequence content: "CCGATTAACATCAGGGGGGGCTATGATGTTAATCGGGTCTTGATTCGCTTGACGCTGCTG"
  qualitative label: "T"
- sequence content: "CCGATTAACATCAGGGGGGAAGATGATGTTAATCGGGTCTTGATTCGCTTGACGCTGCTG"
  qualitative label: "T"
- sequence content: "CCGATTAACATCAACAAAATCCCTGATGTTAATCGGGTCTTGATTCGCTTGACGCTGCTG"
  qualitative label: "F"
- sequence content: "CCGATTAACATCAGGGAGTTCACTGATGTTAATCGGGTCTTGATTCGCTTGACGCTGCTG"
  qualitative label: "F"

* * *

- target desc: GST-Aq-NF-kB (Amphimedon queenslandica, UniProt A9Y5G7 2-389)
- Sequence: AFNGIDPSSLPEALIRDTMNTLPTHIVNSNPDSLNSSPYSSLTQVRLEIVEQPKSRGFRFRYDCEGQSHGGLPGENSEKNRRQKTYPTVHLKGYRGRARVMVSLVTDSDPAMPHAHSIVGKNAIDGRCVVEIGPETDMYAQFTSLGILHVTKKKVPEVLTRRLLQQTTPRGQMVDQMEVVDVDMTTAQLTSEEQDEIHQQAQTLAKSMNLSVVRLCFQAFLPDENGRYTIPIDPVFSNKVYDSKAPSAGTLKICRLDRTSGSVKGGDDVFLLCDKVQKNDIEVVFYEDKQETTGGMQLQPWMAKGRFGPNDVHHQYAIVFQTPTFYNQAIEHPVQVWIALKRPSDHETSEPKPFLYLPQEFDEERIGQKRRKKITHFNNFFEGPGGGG
- method description: protein-binding microarray (PBM); PBM: ~300 nM protein, 6 mM HEPES pH 7.8, 80 mM KCl, 0.5 mM EDTA, 0.5 mM EGTA, 6% glycerol, 35 ng/ul poly-dIdC, 1% milk, 1 h, room temperature; Ap Aiptasia and Nv Nematostella (sea anemones) / Co Capsaspora / Aq Amphimedon (sponge) / Dm Drosophila / Hu human; RHD is the Rel homology domain; high values mean tight binding
- measurement setup: dsDNA, one strand shown

- sequence content: "CCGATTAACATCAGGGGATTCACTGATGTTAATCGGGTCTTGATTCGCTTGACGCTGCTG"
  unit of measurement: "z-score"
  binding signal: 6.42
- sequence content: "CCGATTAACATCAGAAATTCCCATGATGTTAATCGGGTCTTGATTCGCTTGACGCTGCTG"
  unit of measurement: "z-score"
  binding signal: 4.99
- sequence content: "CCGATTAACATCACTTCCCCCCCTGATGTTAATCGGGTCTTGATTCGCTTGACGCTGCTG"
  unit of measurement: "z-score"
  binding signal: 4.94
- sequence content: "CCGATTAACATCAAAACCTCCCCTGATGTTAATCGGGTCTTGATTCGCTTGACGCTGCTG"
  unit of measurement: "z-score"
  binding signal: 4.96
- sequence content: "CCGATTAACATCAGACAATTCCCTGATGTTAATCGGGTCTTGATTCGCTTGACGCTGCTG"
  unit of measurement: "z-score"
  binding signal: 4.77
